Overview of recorded EC50 for various compounds
Test system: L. donovani HU3 strain in mouse peritoneal macrophages
Test: Assay for proliferation of Leishmania parasites in infected mouse peritoneal macrophages (SybrGreen staining, high-content imaging, 5 days)
Type: cell-based, Leishmania donovani
Details: Leishmania donovani, Peritoneal macrophage, L. donovani in mouse peritoneal macrophages, inhibition of proliferation; read-out: L. donovani Macrophage EC50

INSERT INTO assay_data (compound, property_label, val) VALUES
  ('CC(C)OC(=O)Nc1cnc2nc(-c3cc(NC(=O)N4CCC(C)(C(=O)O)C4)ccc3Cl)cn2c1 (centres unmarked)', 'EC50', '> 42.1 µM'),
  ('CC(C)OC(=O)Nc1cnc2nc(-c3cc(NC(=O)c4cc5cc(Cl)ccc5[nH]4)ccc3F)cn2c1', 'EC50', '> 50 µM'),
  ('CC(C)OC(=O)Nc1cnc2nc(-c3cc(NC(N)=O)ccc3Cl)cn2c1', 'EC50', '> 50 µM'),
  ('Cc1ncc(C(=O)Nc2ccc(F)c(-c3cn4cc(C(F)F)cnc4n3)c2)o1', 'EC50', '0.317 µM'),
  ('CC(C)OC(=O)Nc1cnc2nc(-c3cccc(NC(=O)N4CCCC4)c3)cn2c1', 'EC50', '4 µM');

Query string: Using known records, supply EC50 for CC(C)(C)OC(=O)N1CC=C(c2cnc3nc(-c4cc(NC(=O)N5CCCC5)ccc4Cl)cn3c2)CC1
Result string: 0.308 µM

Query string: Quote EC50 reported for CC(C)OC(=O)Nc1cccc(-c2cn3cc(NC(=O)OC(C)C)cnc3n2)c1 please.
Result string: 1.05 µM

Query string: Supply measured EC50 of CC(C)OC(=O)Nc1cnc2nc(-c3cc(NC(=O)N4CCC(N(C)C)C4)ccc3Cl)cn2c1 (centres unmarked) in your reply.
Result string: 17.1 µM

* * *

Each entry below lists one item and its recorded EC50 value.
Tested on: Trypanosoma brucei Lister 427 strain, bloodstream form
Assay: Assay for proliferation of kinetoplastid parasite Trypanosoma brucei (Cell Titer Glo, 48 hours)
Format: cell-based
Settings: Trypanosoma brucei, T. brucei Lister 427 bloodstream form; read-out: T. brucei EC50
Express your answer in nM, writing the number without its unit.

INSERT INTO measurements (substance_smiles, val) VALUES
  ('Cc1cnc(-c2cnc3nc(-c4cc(NC(=O)c5oc(C)nc5C)ccc4F)cn3c2)cn1', 97),
  ('CC(C)c1cnc2nc(-c3cc(NC(=O)N4CC(F)C4)ccc3F)cn2c1', 12),
  ('Cc1nc(C)c(C(=O)Nc2ccc(F)c(-c3cn4cc(-c5cn(C)cn5)cnc4n3)c2)o1', 378),
  ('Cc1nc(C)c(C(=O)Nc2ccc(F)c(-c3cn4cc(OC(C)C)cnc4n3)c2)o1', 159),
  ('Cc1nc(C)c(C(=O)Nc2ccc(F)c(-c3cn4cc(-c5ccccc5F)cnc4n3)c2)o1', 53),
  ('COCN(C(=O)OC(C)C)c1cnc2nc(-c3cc(NC(=O)c4oc(C)nc4C)ccc3F)cn2c1', 664);

Query string: Answer with the recorded EC50 of CC(=O)Nc1ccc(F)c(-c2cn3cc(NC(C)=O)cnc3n2)c1 only.
Result string: 12100

* * *

Test system: L. donovani HU3 strain in mouse peritoneal macrophages
Assay: Assay for proliferation of Leishmania parasites in infected mouse peritoneal macrophages (SybrGreen staining, high-content imaging, 5 days)
Assay type: cell-based, Leishmania donovani
Settings: Leishmania donovani, Peritoneal macrophage, L. donovani in mouse peritoneal macrophages, inhibition of proliferation; read-out: L. donovani Macrophage EC50
pEC50: −log10 of the molar value.
Outcome label depends on pEC50 relative to 6: at/above gives 1, below gives 0.

Solved entries (count: 6):
INSERT INTO results (molecule, qualitative_label) VALUES
  ('Cc1nc(C)c(C(=O)Nc2ccc(F)c(-c3cn4cc(F)cnc4n3)c2)o1 [Compound 199]', 0),
  ('Cc1nc(C)c(C(=O)Nc2ccc(F)c(-c3cn4cc(NC(=O)c5oc(C)nc5C)cnc4n3)c2)o1 [Compound 150]', 0),
  ('CC(C)OC(=O)Nc1cnc2nc(-c3cc(NC(=O)c4cnc(N)o4)ccc3F)cn2c1 [Compound 94]', 0),
  ('Cc1nc(C)c(C(=O)Nc2ccc(F)c(-c3cn4cc(NC(=O)C5CNCCO5)cnc4n3)c2)o1 (centres unmarked) [Compound 179]', 0),
  ('CC(C)OC(=O)Nc1cnc2nc(-c3cc(NC(=O)N4C[C@@H]5C[C@H]4CO5)ccc3Cl)cn2c1 [Compound 258]', 0),
  ('Cc1nc(C)c(C(=O)Nc2cccc(-c3cn4cc(NC(=O)OC(C)C)cnc4n3)c2)o1 [Compound 22]', 1);

Turning to the following molecule.
Query string: Check if pEC50 >= 6 (inclusive). Item: O=C(Nc1ccc(F)c(-c2cn3cc(C(F)(F)F)cnc3n2)c1)N1CCC1 [Compound 299]
Result string: 1

* * *

Tested on: Leishmania donovani axenic amastigote parasites
Test: Leishmania donovani axenic amastigote proliferation assay (Cell TiterGlo luminescence, 2 day incubation)
Format: cell-based
Details: Leishmania donovani, L. donovani axenic amastigotes; read-out: L. donovani amastigotes EC50
Property Label: EC50 (nM)
A number alone suffices; assume nM.

Take a look at these entries with their results.
INSERT INTO assay_data (substance_smiles, val) VALUES
  ('Cc1ccc(-c2cnc3nc(-c4cc(NC(=O)c5oc(C)nc5C)ccc4F)cn3c2)nn1', 108),
  ('COCN(C(=O)OC(C)C)c1cnc2nc(-c3cc(NC(=O)c4oc(C)nc4C)ccc3F)cn2c1', 814),
  ('Cc1ncc(C(=O)Nc2ccc(F)c(-c3cn4cc(C(C)C)cnc4n3)c2)o1', 26);

Query string: Write down EC50 measured for item Cc1nc(C)c(C(=O)Nc2ccc(F)c(-c3cn4cc(CC5OCCO5)cnc4n3)c2)o1
Result string: 389

Query string: Return the recorded EC50 value; entry: Cc1nc(C)c(C(=O)Nc2ccc(F)c(-c3cn4cc(C5CCNCC5)cnc4n3)c2)o1
Result string: 2360

Query string: Recall and state the measured EC50 for O=C(Nc1ccc(Cl)c(-c2cn3cc(N4CCCC4)cnc3n2)c1)N1CCCC1 .
Result string: 235

Query string: Name the recorded EC50 of the item CCN(C)C(=O)Nc1ccc(F)c(-c2cn3cc(-c4ccccn4)cnc3n2)c1 in your answer.
Result string: 392

Query string: Give the value of EC50 reported for the following: CC(C)Nc1cnc2nc(-c3cc(NC(=O)N4CC[C@@H](F)C4)ccc3F)cn2c1
Result string: 234

Query string: Give the measured EC50 for O=C(Nc1ccc(F)c(-c2cn3cc(F)cnc3n2)c1)N1CCCC1
Result string: 641

Query string: Complete the entry with EC50 for Cc1nc(C)c(C(=O)Nc2ccc(F)c(-c3cn4cc(-c5ccccc5N)cnc4n3)c2)o1
Result string: 221

* * *

Test system: Trypanosoma brucei Lister 427 strain, bloodstream form
Test: Assay for proliferation of kinetoplastid parasite Trypanosoma brucei (Cell Titer Glo, 48 hours)
Assay type: cell-based
Conditions: Trypanosoma brucei, T. brucei Lister 427 bloodstream form; read-out: T. brucei EC50
Property Label: EC50 (nM)
Note: unit nM is implicit; provide only the numeric part.

INSERT INTO results (substance_smiles, property_label, val) VALUES
  ('Cc1nc(C)c(C(=O)Nc2ccc(F)c(-c3cn4cc(-c5ccnn5C)cnc4n3)c2)o1', 'EC50', 110);

Query string: Complete the entry with EC50 for Nc1cnc2nc(-c3cc(NC(=O)c4ccc(F)o4)ccc3Cl)cn2c1
Result string: 1350

Query string: Given the molecule Cc1nc(C(=O)Nc2ccc(Cl)c(-c3cn4cc(NC(=O)OC(C)C)cnc4n3)c2)no1 , write its reported EC50.
Result string: 6960

* * *

The following compounds are listed with their measured pEC50 values.
Tested on: Trypanosoma cruzi amastigotes (Tulahuen strain expressing Lac-Z) cultured in 3T3 fibroblast cells
Assay: microbe, parasite or virus in culture
Type: cell-based
Settings: Trypanosoma cruzi, TULAHUEN, Fibroblast, T. cruzi amastigotes in 3T3 fibroblast cells; read-out: T cruzi EC50
Please express pEC50 as -log10 of the molar concentration.

INSERT INTO assay_data (compound, property_label, val) VALUES
  ('COCCN1CCC(c2cnc3nc(-c4cc(NC(=O)c5oc(C)nc5C)ccc4F)cn3c2)CC1', 'pEC50', 5.88);

Query string: For Cc1nc(C)c(C(=O)Nc2ccc(F)c(-c3cn4cc(NC5=NC(C)CO5)cnc4n3)c2)o1 (stereo not shown) , write its pEC50.
Result string: 4.90

Query string: Find the measured pEC50 of Cc1nc(C)c(C(=O)Nc2ccc(F)c(-c3cn4cc(CC(F)(F)F)cnc4n3)c2)o1 and report it.
Result string: 7.28

Query string: Answer with reported pEC50 of CC(C)OC(=O)N(C)c1cnc2nc(-c3cc(N(C)C(=O)c4ccc(Cl)o4)ccc3F)cn2c1
Result string: 5.48

Query string: Kindly indicate its recorded pEC50. Item: O=C(Nc1ccc(F)c(-c2cn3cc(-c4ccccc4)cnc3n2)c1)N1CC[C@@H](F)C1
Result string: 8.30

Query string: Entry [2H]C([2H])([2H])N(C(=O)Nc1ccc(F)c(-c2cn3cc(C4CC4)cnc3n2)c1)C([2H])([2H])[2H] needs its pEC50 filled in; supply it.
Result string: 6.42

Query string: # return recorded pEC50 for entry CCC(C)Nc1cnc2nc(-c3cc(NC(=O)c4oc(C)nc4C)ccc3F)cn2c1 (stereo not shown)
Result string: 6.83
